Origin of values: paper PMC3264552

- study system: recombinant HarmOBP10 (Helicoverpa armigera, UniProt G9I573)
- Sequence (G9I573 entry or part of it): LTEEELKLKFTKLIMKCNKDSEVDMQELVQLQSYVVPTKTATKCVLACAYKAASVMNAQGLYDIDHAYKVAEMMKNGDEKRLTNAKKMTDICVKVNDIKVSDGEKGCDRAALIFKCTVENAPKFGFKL
- assay notes: Competitive fluorescence binding assay (displacement of 1-NPN from HarmOBP10)
- measurement conditions: read-out: % at max (percent of fluorescence measured at the maximum concentration)
readout: activity at 6 µM
Entry format: amount then unit.

GET /value?item= C=CCCCCCCCCCC [1-Dodecene] &field=activity at 6 µM returns 50%

GET /value?item= CC(C)=CCC/C(C)=C/CC/C(C)=C/CO [Farnesol] &field=activity at 6 µM returns 54%

GET /value?item= CCCCCCCCCC(=O)OCC [Ethyl decanoate] &field=activity at 6 µM returns 44%

GET /value?item= CCCCCCCCCCCCCCO [1-Tetradecanol] &field=activity at 6 µM returns 36%

====

- study system: recombinant HarmOBP10 (Helicoverpa armigera, UniProt G9I573)
- assay notes: Competitive fluorescence binding assay (displacement of 1-NPN from HarmOBP10)
- measurement conditions: read-out: % at max (percent of fluorescence measured at the maximum concentration)
Assign activity at 16 µM to each entry below.
Lab book: enter the figure in %, no units written.

Note to self: activity at 16 µM of `COc1cc(CC(=O)O)ccc1O` with recombinant HarmOBP10 (Helicoverpa armigera, UniProt G9I573) was 66

Note to self: activity at 16 µM of `COc1cc(/C=C/C=O)ccc1O` with recombinant HarmOBP10 (Helicoverpa armigera, UniProt G9I573) was 30

Note to self: activity at 16 µM of `C=CCc1ccc(O)c(OC)c1` with recombinant HarmOBP10 (Helicoverpa armigera, UniProt G9I573) was 80

Note to self: activity at 16 µM of `Cc1ccc2ccccc2c1` with recombinant HarmOBP10 (Helicoverpa armigera, UniProt G9I573) was 75

Note to self: activity at 16 µM of `CC(C)=CCC/C(C)=C/C=O` with recombinant HarmOBP10 (Helicoverpa armigera, UniProt G9I573) was 66

Note to self: activity at 16 µM of `O=C(O)/C=C/c1ccccc1` with recombinant HarmOBP10 (Helicoverpa armigera, UniProt G9I573) was 74

====

- study system: recombinant HarmOBP10 (Helicoverpa armigera)
- assay notes: Competitive fluorescence binding assay (displacement of 1-NPN from HarmOBP10)
- measurement conditions: max conc 16 (titration 2–16 µM); protein and 1-NPN both 2 µM; percent of fluorescence without competitor
Each record's class is read off its % at max (percent of fluorescence measured at the maximum concentration) using these ranges: lower range (below 40%), middle range (40% to below 50%), upper range (50% or more)

Enquiry: Returns: class label. Input: CC(C)c1ccc(C=O)cc1 [p-Isopropylbenzaldehyde]
Return: upper range

Enquiry: Returns: class label. Input: CCCCC/C(C=O)=C/c1ccccc1 [a-Amylcinnamaldehyde]
Return: lower range

Enquiry: Returns: class label. Input: CC(C=O)Cc1ccc(C(C)C)cc1 (centres unmarked) [Cyclamen aldehyde]
Return: upper range

Enquiry: Returns: class label. Input: CCCCCCCCOC(=O)c1ccccc1 [n-Octyl benzoate]
Return: lower range

Enquiry: Returns: class label. Input: COC(C=O)=Cc1ccccc1 [a-Methoxycinnamaldehyde]
Return: lower range

Enquiry: Returns: class label. Input: CCCCOC(=O)c1ccc(C(C)(C)C)cc1 [Butyl p-tert-butylbenzoate]
Return: middle range

Enquiry: Returns: class label. Input: CC(C)=CCCC(C)=CC#N [Citralva]
Return: upper range

Enquiry: Returns: class label. Input: CCCCCCOC(=O)c1ccccc1 [n-Hexyl benzoate]
Return: lower range

Enquiry: Returns: class label. Input: CCCCOC(=O)C=Cc1ccccc1 [n-Butyl cinnamate]
Return: middle range

Enquiry: Returns: class label. Input: CC(C)(C)c1ccc(C(=O)c2ccccc2)cc1 [p-tert-Butylbenzophenone]
Return: lower range
